Molecular target: HDAC8 (Homo sapiens)
Construct: HDAC8 (full length, C-terminal His tag, BPS Bioscience, cat. #: 50008); purchased BPS Bioscience 50008
Sequence (Q9BY41 1-377): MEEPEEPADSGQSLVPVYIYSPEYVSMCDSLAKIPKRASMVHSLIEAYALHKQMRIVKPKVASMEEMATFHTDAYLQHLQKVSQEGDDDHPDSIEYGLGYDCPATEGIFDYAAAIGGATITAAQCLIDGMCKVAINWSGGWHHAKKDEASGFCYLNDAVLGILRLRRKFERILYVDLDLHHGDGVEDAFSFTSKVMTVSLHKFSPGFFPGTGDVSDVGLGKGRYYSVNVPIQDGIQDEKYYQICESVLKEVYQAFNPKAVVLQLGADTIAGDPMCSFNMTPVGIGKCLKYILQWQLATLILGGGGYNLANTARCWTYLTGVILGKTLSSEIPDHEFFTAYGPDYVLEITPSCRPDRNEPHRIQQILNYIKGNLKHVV
Assay: Recombinant HDAC µSPOT microarray binding assay;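 also: peptide µSPOT slides incubated with varying HDAC enzyme concentrations, imaged signal intensity fitted by four-parameter variable-slope regression, EC50 is enzyme concentration giving half-maximal binding, pH 7.4 HEPES buffer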;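 also: relative spot intensity from the six enzyme-concentration slides imaged together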
Details: HDAC8 µSPOT microarray dose-response fit, Top Value; X = Asuha; sheet Fig. 3 HDAC8
Quick rule for you: Top under 0.6 gets condition met, anything else gets condition not met.

Consider H2B 58-73 (AMGIMNSFVNDIFERI; UniProt P06899 59-74, looked up, fragment) . Does its Top lie strictly below 0.6?
condition not met

Request: H2B 64-79 (SFVNDIFERIAGEASR; UniProt P62807 65-80, looked up, fragment)
condition not met

Now give it for H2A 19-34 (SRAGLQFPVGRVHRLL; UniProt P04908 20-35, looked up, fragment) too.
condition met

Same for H2B 61-76 (IMNSFVNDIFERIAGE; UniProt P62807 62-77, looked up, fragment)
condition met

One more substance: H2A 16-31 (TRSSRAGLQFPVGRVH; microarray-immobilized; UniProt P0C0S8 17-32, looked up, fragment)
condition met

Another substance to check: H2A 55-70 (LEYLTAEILELAGNAA; UniProt P0C0S8 56-71, looked up, fragment)
condition not met

Consider next the substance H2A 49-64 (VYLAAVLEYLTAEILE; UniProt P0C0S8 50-65, looked up, fragment) in the same way.
condition not met

Query H2A 40-55 (AERVGAGAPVYLAAVL; UniProt P0C0S8 41-56, looked up, fragment) next
condition met

Param item: H2B 67-82 (NDIFERIAGEASRLAH; UniProt P06899 68-83, looked up, fragment)
condition not met
